System: KM12 colon
Test: NCI-60 one-dose screen, 48 h (100 = growth as untreated, 0 = no growth, -100 = all killed)
Details: 10 µM unless noted
Method: Growth inhibition of the KM12 human tumor cell line is measured as a screen for anti-cancer activity. Cells are grown in 96 well plates and exposed to the test compound for 48 hours. Compounds are tested at a single concentration, which is 10^-5 M for most compounds. The reported endpoint is percent growth (GI% or GIPRCNT), where numbers from 0 - 100% represent growth inhibition, and numbers from -100% - 0 represent cell death. For example, a value of 40 represents 60% growth inhibition. […]
Compounds without any hit were thinned out: in the full panel of roughly 83,000, 20% have a hit.
Label Yes when growth >= 50%; otherwise No.

Sample answers from the record:
* COc1cc(NC(=O)c2cccc(-c3cc(=O)c4c(OC)c(OC)c(OC)cc4o3)c2)cc(OC)c1OC | No
* CC(=O)c1sc(-c2ccccc2)cc1N | Yes
* CCCCN(CCCC)CCCn1c(=O)c2sc3ncccc3c2n2nnc(-c3ccccc3)c12 | Yes
* Cc1nn(Cc2ccccc2)cc1C(=O)Nc1sc2c(c1C(N)=O)CCC(=O)C2 | No
* O=C(NCCN1CCC(O)CC1)c1cc2c(o1)C(=O)c1ccccc1C2=O | No
* CCCc1nc2ccccn2c1Nc1ccc(C(=O)NO)cc1 | Yes

// query Decide: is the reported value of growth for C=C(C)[C@@H]1CC[C@@]2(C(=O)O)CC[C@]3(C)C(CCC4[C@@]5(C)CCC(OS(=O)(=O)c6ccccc6)C(C)(C)C5CC[C@]43C)C12 (stereo not given in full) equal to or greater than 50%?
// result No

// query Another compound: Cc1cc(-c2noc(C(F)(F)F)n2)ccc1N1CCN(c2cc(C(=O)N(C)C)no2)CC1
// result Yes

// query Consider next the compound O=C(NCOC(O)C(Cl)(Cl)Cl)NCOC(O)C(Cl)(Cl)Cl (stereo not given) in the same way.
// result Yes
